- Test system: Saccharomyces cerevisiae;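 further: PSI is a weighted mean of sequencing reads over stability bins, variants kept only with over 10 reads, mCherry proximal and sfGFP distal, peptide attached via GGGS linker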
- run description: protein stability index of tFT-peptide fusion (C-terminal peptide) (PSI (0-1 scale)); higher = more stable (slower turnover)
- conditions used: genetic background: das1 deletion; temperature: 37 C
parameter measured: protein stability index

sequence text	value
VVFLLGPLVCGG	0.535
PSPRLSLPPRLP	0.731
RPCRPLIAAFVF	0.563
VICVVLSKVFLF	0.588
FLCFFGGCFFLV	0.646
LPHIFFCLFSLL	0.657
SRRSIGAYLFVS	0.768
FSFSFYFALASF	0.495
SMFFLFFFFFFF	0.444
PPPHPPPATFLS	0.729
SVIAYTKPLWFR	0.498
VAWFFFAYAFFM	0.488
ALMTFTLVFTYM	0.324
SSCFLLFRVVWR	0.436
CVIVCVLVWGRA	0.329
SGLVAFSVCCRG	0.518
PSPYSLSPYFLV	0.767
STSSVMVFLRMC	0.708
LGPLGWLVLLLV	0.483
FGFSFLHLFIFF	0.519
CYVFLCGSFVFV	0.551
KRLALVSCSICG	0.624
SLASPPPLLILR	0.436
FVLFCWFFCIVW	0.363
CPICDFLFLALF	0.651
CPFLTLLISLDV	0.531
VPRGAALIFLCF	0.622
VLWSCCGGVRVR	0.65
GCVGLSFCVWVG	0.523
ILCYVWLVFSGF	0.382
NCMGLLMPLLIT	0.504
VLVVLRSEVSLS	0.385
FILLIFLSLLSP	0.454
LCSLSIFVLFSC	0.381
VFMTLHCITIYK	0.519
